I'd appreciate it if you could supply solubility values for the items below.
ASSAY SUMMARY: Aqueous Solubility in pION's buffer
Type: physicochemical
COND: aqueous buffer, pH 5.0, read-out: Aqueous Solubility in pION's buffer pH 5.0
Numbers only, in µg/mL.

- COMPOUND: "O=C(/C=C/c1nc2ccccc2[nH]1)c1c(O)nc2ccc(Cl)cc2c1-c1ccccc1 [BI-69A11, reference compound]"
  UNIT ANNOTATION: "µg/mL"
  solubility: 0.16
- COMPOUND: "O=C(/C=C/c1cncc(F)c1)c1c(-c2ccccc2)c2cc(Cl)ccc2[nH]c1=O [Compound 38]"
  UNIT ANNOTATION: "µg/mL"
  solubility: 6.5
- COMPOUND: "O=C(/C=C/c1nc2cc(Cl)ccc2[nH]1)c1c(-c2ccccc2)c2cc(Cl)ccc2[nH]c1=O [Compound 62]"
  UNIT ANNOTATION: "µg/mL"
  solubility: 0.34

Okay, now this compound:
Entry O=C(/C=C/c1ccccc1)c1c(C2CCCCC2)c2cc(Cl)ccc2[nH]c1=O [Compound 12] has what solubility?
1.6
